The reported measurements were obtained from patent US10457707B2.

# STUDY SYSTEM: Sa-ClpP (Staphylococcus aureus)
# Construct: made in house; host or cells: E. coli BL21(DE3)
# Sequence (Q2G036 whole entry): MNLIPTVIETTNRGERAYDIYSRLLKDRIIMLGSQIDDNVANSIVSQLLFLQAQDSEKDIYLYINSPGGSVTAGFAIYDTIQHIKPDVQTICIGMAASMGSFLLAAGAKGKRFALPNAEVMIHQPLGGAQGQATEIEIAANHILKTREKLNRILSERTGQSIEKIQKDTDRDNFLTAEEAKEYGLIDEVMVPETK
# TEST SUMMARY: ADEP displacement fluorescence polarization assay (FP probe ADEP 2591)
# Assay type: binding
*1 amine or outer side, *2 acyl side, *3 side chain or, on linkers, in order; H or OH if unused. Where a SMILES comes first, the peptide text is derived from it. Bridges are numbered along the chain shown (N, C = ends). [ ]: non-standard residue; d: D form. The star is where a group is joined. ξ: configuration not given here. NH(1,3-benzodioxol-5-yl) = c1cc2c(cc1N*)OCO2; Phe(3,5-F2) = N[C@@H](Cc1cc(F)cc(F)c1)C(=O)O; NH(4-OCF3-phenyl) = FC(F)(F)Oc1ccc(N*)cc1; Morpholine(3S-CO) = O=C(O)[C@@H]1COCCN1; Pro(4R-Me) = C[C@H]1CN[C@H](C(=O)O)C1; NH(3,4-Me2-phenyl) = Cc1ccc(N*)cc1C; Hyp = O=C(O)[C@@H]1C[C@@H](O)CN1; aThr = C[C@H](O)[C@H](N)C(=O)O; Pip = O=C(O)[C@@H]1CCCCN1; NMeA = CN[C@@H](C)C(=O)O; CO = O=C([*:1])[*:2]; ξP = O=C(O)C1CCCN1
RECORDED METRIC: pIC50
pIC50 here: minus log base 10 of the concentration, concentration in moles per litre.

These solved cases illustrate the format of a correct answer.
C[C@@H]1NC(=O)[C@H](C)N(C)C(=O)[C@@H]2CCCN2C(=O)[C@@H](NC(=O)[C@H](Cc2ccccc2)NC(=O)Nc2ccc(OC(F)(F)F)cc2)COC(=O)C2CCCN2C1=O (stereo partly drawn) [Compound 213] ({NH(4-OCF3-phenyl)-CO}-FSP[NMeA]A[ξP]; ester 2-C) ... 5.30
C[C@@H]1C[C@H]2C(=O)O[C@@H](C)[C@H](NC(=O)[C@H](Cc3cc(F)cc(F)c3)NC(=O)Nc3ccc4c(c3)OCO4)C(=O)N3C[C@H](O)C[C@H]3C(=O)N3CCOC[C@H]3C(=O)N[C@@H](C)C(=O)N2C1 [Compound 319] ({NH(1,3-benzodioxol-5-yl)-CO}-[Phe(3,5-F2)][aThr][Hyp][Morpholine(3S-CO)]A[Pro(4R-Me)]; ester 2-C) ... 5.11

We now examine a further compound.
Challenge: Supply pIC50 measured with Sa-ClpP (Staphylococcus aureus) for Cc1ccc(NC(=O)N[C@@H](Cc2cc(F)cc(F)c2)C(=O)N[C@@H]2C(=O)N3C[C@H](O)C[C@H]3C(=O)N3CCCC[C@H]3C(=O)N[C@@H](C)C(=O)N3C[C@H](C)C[C@H]3C(=O)O[C@H]2C)cc1C [Compound 212] ({NH(3,4-Me2-phenyl)-CO}-[Phe(3,5-F2)][aThr][Hyp][Pip]A[Pro(4R-Me)]; ester 2-C) .
Response given: 5.16

* * *

# maps each entry to its IC50
# System: Vero (kidney epithelial cells; ATCC CCL-81)
# TEST SUMMARY: Cytotoxicity assay (CellTiter-Glo cell viability, 72 hours)
# Type: cell-based
# TEST CONDITIONS: Vero cells, 72 hours, growth inhibition; read-out: Cytotoxicity IC50
*1 amine or outer side, *2 acyl side, *3 side chain or, on linkers, in order; H or OH if unused. Where a SMILES comes first, the peptide text is derived from it. Bridges are numbered along the chain shown (N, C = ends). [ ]: non-standard residue; d: D form. The star is where a group is joined. Phe(3,5-F2) = N[C@@H](Cc1cc(F)cc(F)c1)C(=O)O; NH(4-OCF3-phenyl) = FC(F)(F)Oc1ccc(N*)cc1; Pro(4S-Me) = C[C@@H]1CN[C@H](C(=O)O)C1; Heptenoyl(2E) = CCCC/C=C/C(=O)*; aThr = C[C@H](O)[C@H](N)C(=O)O; Pip = O=C(O)[C@@H]1CCCCN1; CO = O=C([*:1])[*:2]
Use µM as the unit, but write only the number.

CCCC/C=C/C(=O)N[C@@H](Cc1cc(F)cc(F)c1)C(=O)N[C@@H]1C(=O)N2CCC[C@H]2C(=O)N2CCCC[C@H]2C(=O)N[C@@H](C)C(=O)N2CCC[C@H]2C(=O)O[C@H]1C [ADEP 2719, reference compound] ({Heptenoyl(2E)}-[Phe(3,5-F2)][aThr]P[Pip]AP; ester 2-C) ... 37.7

We now examine a further compound.
Challenge: Supply IC50 measured with Vero (kidney epithelial cells; ATCC CCL-81) for C[C@H]1C[C@H]2C(=O)O[C@@H](C)[C@H](NC(=O)[C@H](Cc3cc(F)cc(F)c3)NC(=O)Nc3ccc(OC(F)(F)F)cc3)C(=O)N3CCC[C@H]3C(=O)N3CCCC[C@H]3C(=O)N[C@@H](C)C(=O)N2C1 [Compound 22] ({NH(4-OCF3-phenyl)-CO}-[Phe(3,5-F2)][aThr]P[Pip]A[Pro(4S-Me)]; ester 2-C) .
Response given: 52.3
